- experimental conditions: in n-propanol, 313.03 K
measured endpoint: solubility (mole fraction)

* C[C@H]1[C@H](OC(=O)CCC(=O)O)O[C@@H]2O[C@@]3(C)CC[C@H]4[C@H](C)CC[C@@H]1[C@@]24OO3 | 0.034

* * *

- experimental conditions: in n-pentanol, 288.23 K
measured endpoint: solubility (mole fraction)

- C[C@H]1[C@H](OC(=O)CCC(=O)O)O[C@@H]2O[C@@]3(C)CC[C@H]4[C@H](C)CC[C@@H]1[C@@]24OO3: 0.0137

* * *

- experimental conditions: in isopropyl acetate, 318.14 K
measured endpoint: solubility (mole fraction)

* C[C@H]1[C@H](OC(=O)CCC(=O)O)O[C@@H]2O[C@@]3(C)CC[C@H]4[C@H](C)CC[C@@H]1[C@@]24OO3 | 0.0258
